Numbers sourced from patent US11148991B2.

Experiment: Acute toxicity (LD50), rat
Conditions: in vivo, po
Would you mind telling me the reported LD50 of each entry?
Numbers only, in mg/kg.

Report measured LD50; entry is CCCCC(O)c1ccc(Br)cc1C(=O)[O-].[Na+] (centres unmarked) [BZP (amorphous form)] 726

Moving on to another molecule below.
Assign LD50 to the following record: CCCCC(O)c1ccccc1C(=O)[O-].[K+] (centres unmarked) [NBP-K, reference compound] 623

----------
Test: Acute toxicity (LD50), mouse
Settings: in vivo, iv
For each of the molecules below, state its LD50.
Give bare numbers, in mg/kg.

Provide LD50 value for the following molecule: CCCCC(O)c1ccc(Br)cc1C(=O)[O-].[Na+] (centres unmarked) [BZP (amorphous form)] 323

Now consider a different molecule.
For the molecule CCCCC(O)c1ccccc1C(=O)[O-].[K+] (centres unmarked) [NBP-K, reference compound] , give its reported LD50. 303

----------
Assay: Solubility in water and methanol
Format: physicochemical
Settings: water; read-out: Solubility in water
measured_quantity: solubility (mg/mL)
Answers are plain numbers, in mg/mL.

Read off the recorded solubility for CCCCC(O)c1ccc(Br)cc1C(=O)[O-].[Na+] (stereo not shown) [BZP (amorphous form)] 2980

----------
Assay: Acute toxicity (LD50), rat
Settings: in vivo, iv
measured_quantity: LD50 (mg/kg)
Numbers only, in mg/kg.

Give LD50 for CCCCC(O)c1ccc(Br)cc1C(=O)[O-].[Na+] (centres unmarked) [BZP (amorphous form)] 246

Now consider a different compound.
Provide one value: measured LD50 of CCCCC(O)c1ccccc1C(=O)[O-].[K+] (centres unmarked) [NBP-K, reference compound] 230

----------
Experiment: Solubility in water and methanol
Format: physicochemical
Settings: methanol, organic solvent or mixture, methanol; read-out: Solubility in methanol
measured_quantity: solubility (mg/mL)
Numbers only, in mg/mL.

Identify solubility associated with the molecule CCCCC(O)c1ccc(Br)cc1C(=O)[O-].[Na+] (stereo not shown) [BZP (amorphous form)] 1890

----------
Assay: Acute toxicity (LD50), mouse
Conditions: in vivo, po
measured_quantity: LD50 (mg/kg)
Answers are plain numbers, in mg/kg.

Give a short answer stating reported LD50 for CCCCC(O)c1ccccc1C(=O)[O-].[K+] (centres unmarked) [NBP-K, reference compound] . 880

Okay, now this compound:
Fill in reported LD50 for this entry: CCCCC(O)c1ccc(Br)cc1C(=O)[O-].[Na+] (centres unmarked) [BZP (amorphous form)] 927
